Documented Residual activity [%] across a set of binders
Biological target: T1, VLP2 (virus-like particles of AAV2) (AAV2, UniProt P03135 1-735; P03135 1-598; P03135 1-533)
T1 construct: Empty AAV2 capsid; background says about 60 protein molecules, VP1:VP2:VP3 = 1:1:10; Immobilised on the ELISA plate
T1 sequence (P03135 whole entry, chain 1 of 3): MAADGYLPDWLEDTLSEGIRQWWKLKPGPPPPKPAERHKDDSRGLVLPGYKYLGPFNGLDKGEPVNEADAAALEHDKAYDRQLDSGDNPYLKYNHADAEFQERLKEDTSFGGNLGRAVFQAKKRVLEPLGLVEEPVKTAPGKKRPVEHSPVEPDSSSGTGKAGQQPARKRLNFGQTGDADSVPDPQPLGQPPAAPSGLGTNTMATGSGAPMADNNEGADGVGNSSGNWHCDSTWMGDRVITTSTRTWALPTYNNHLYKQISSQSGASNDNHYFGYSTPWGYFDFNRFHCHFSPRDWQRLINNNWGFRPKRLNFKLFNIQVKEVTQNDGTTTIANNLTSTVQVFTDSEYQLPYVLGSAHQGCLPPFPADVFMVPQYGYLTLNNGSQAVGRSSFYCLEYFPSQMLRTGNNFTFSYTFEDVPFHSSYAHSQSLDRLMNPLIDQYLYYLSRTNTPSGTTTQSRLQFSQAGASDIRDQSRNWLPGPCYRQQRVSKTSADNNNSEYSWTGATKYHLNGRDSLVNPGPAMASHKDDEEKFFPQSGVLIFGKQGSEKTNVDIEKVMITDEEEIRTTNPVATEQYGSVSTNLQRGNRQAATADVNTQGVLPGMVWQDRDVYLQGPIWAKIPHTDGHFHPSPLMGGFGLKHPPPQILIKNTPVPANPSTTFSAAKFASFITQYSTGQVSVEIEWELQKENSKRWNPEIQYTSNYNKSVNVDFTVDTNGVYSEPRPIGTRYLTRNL
T1 sequence (P03135 139-735, tags left off, chain 2 of 3): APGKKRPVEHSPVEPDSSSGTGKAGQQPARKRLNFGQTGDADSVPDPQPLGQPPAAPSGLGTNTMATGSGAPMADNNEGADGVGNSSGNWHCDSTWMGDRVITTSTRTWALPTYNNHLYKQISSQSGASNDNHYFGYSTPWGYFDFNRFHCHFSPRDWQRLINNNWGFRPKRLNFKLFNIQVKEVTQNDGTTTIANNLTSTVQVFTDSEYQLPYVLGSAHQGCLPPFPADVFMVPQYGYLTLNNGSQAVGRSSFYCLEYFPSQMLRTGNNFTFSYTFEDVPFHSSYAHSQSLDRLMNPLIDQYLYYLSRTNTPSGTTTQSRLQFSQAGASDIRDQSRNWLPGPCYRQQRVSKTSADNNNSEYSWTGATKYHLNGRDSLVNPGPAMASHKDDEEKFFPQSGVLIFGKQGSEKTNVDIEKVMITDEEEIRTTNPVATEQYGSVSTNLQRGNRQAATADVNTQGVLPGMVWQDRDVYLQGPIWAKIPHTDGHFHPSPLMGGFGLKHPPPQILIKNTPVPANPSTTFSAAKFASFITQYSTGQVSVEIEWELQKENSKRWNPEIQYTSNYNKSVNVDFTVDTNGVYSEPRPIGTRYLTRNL
T1 sequence (P03135 203-735, chain 3 of 3): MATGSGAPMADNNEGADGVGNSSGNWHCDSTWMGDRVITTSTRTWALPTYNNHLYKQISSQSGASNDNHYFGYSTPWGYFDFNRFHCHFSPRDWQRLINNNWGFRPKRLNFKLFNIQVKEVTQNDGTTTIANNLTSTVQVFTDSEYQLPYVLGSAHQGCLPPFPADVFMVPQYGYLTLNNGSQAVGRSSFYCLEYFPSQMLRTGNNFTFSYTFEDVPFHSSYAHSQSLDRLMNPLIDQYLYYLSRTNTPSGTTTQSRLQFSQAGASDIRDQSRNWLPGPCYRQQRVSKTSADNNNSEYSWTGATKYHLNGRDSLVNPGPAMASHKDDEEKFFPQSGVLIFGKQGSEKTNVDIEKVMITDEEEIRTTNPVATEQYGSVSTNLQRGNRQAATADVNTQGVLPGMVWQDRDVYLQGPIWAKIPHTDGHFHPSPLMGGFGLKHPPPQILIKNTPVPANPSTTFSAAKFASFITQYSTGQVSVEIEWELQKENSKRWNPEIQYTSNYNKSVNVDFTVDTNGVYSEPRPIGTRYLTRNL
Assay: ELISA on VLP2; A450 after 50.3°C 15 min / untreated
# unit: % | format: bare number

Below: 3 binders and their reported Residual activity [%].
binder="AAV-binding protein No. 9 (Pro352Leu) (receptor) MGSAGESVQITLPKNEVQLNAYVLQEPPKGETYTYDWQLITHLRDYSGEMEGKHSQILKLSKLTPGLYEFKVIVEGQNAHGEGYVNVTVKPEPRKNRPPIAIVSPQFQEISLPTTSTVIDGSQSTDDDKIVQYHWEELKGPLREEKISEDTAILKLSKLVPGNYTFSLTVVDSDGATNSTTANLTVNKAVDHHHHHH" measurementlabel="Residual activity [%]" observedresult=49
binder="AAV-binding protein No. 53 (Asp354Gly, Leu369Gln, Lys455Arg) (receptor) MGSAGESVQITLPKNEVQLNAYVLQEPPKGETYTYDWQLITHPRGYSGEMEGKHSQILKQSKLTPGLYEFKVIVEGQNAHGEGYVNVTVKPEPRKNRPPIAIVSPQFQEISLPTTSTVIDGSQSTDDDKIVQYHWEELKGPLREERISEDTAILKLSKLVPGNYTFSLTVVDSDGATNSTTANLTVNKAVDHHHHHH" measurementlabel="Residual activity [%]" observedresult=29.8
binder="AVR2 (AAV-binding protein No. 32, Tyr342Cys-Gly390Ser substitution product) (receptor) MGSAGESVQITLPKNEVQLNAYVLQEPPKGETCTYDWQLITHPRDYSGEMEGKHSQILKLSKLTPGLYEFKVIVEGQNAHSEGYVNVTVKPEPRKNRPPIAIVSPQFQEISLPTTSTVIDGSQSTDDDKIVQYHWEELKGPLREEKISEDTAILKLSKLVPGNYTFSLTVVDSDGATNSTTANLTVNKAVDHHHHHH" measurementlabel="Residual activity [%]" observedresult=76

Task: For the binder shown here, AAV-binding protein No. 43 (Leu321Pro, Tyr342Asn, Ala461Ser) (receptor) MGSAGESVQITPPKNEVQLNAYVLQEPPKGETNTYDWQLITHPRDYSGEMEGKHSQILKLSKLTPGLYEFKVIVEGQNAHGEGYVNVTVKPEPRKNRPPIAIVSPQFQEISLPTTSTVIDGSQSTDDDKIVQYHWEELKGPLREEKISEDTSILKLSKLVPGNYTFSLTVVDSDGATNSTTANLTVNKAVDHHHHHH , give the reported Residual activity [%].
Result: 55.6

Task: For the binder shown here, AAV-binding protein No. 30 (Glu340Gly, Tyr342Cys) (receptor) MGSAGESVQITLPKNEVQLNAYVLQEPPKGGTCTYDWQLITHPRDYSGEMEGKHSQILKLSKLTPGLYEFKVIVEGQNAHGEGYVNVTVKPEPRKNRPPIAIVSPQFQEISLPTTSTVIDGSQSTDDDKIVQYHWEELKGPLREEKISEDTAILKLSKLVPGNYTFSLTVVDSDGATNSTTANLTVNKAVDHHHHHH , give the reported Residual activity [%].
Result: 65.4

Task: For the binder shown here, AAV-binding protein No. 29 (Leu333Val, Tyr342Cys) (receptor) MGSAGESVQITLPKNEVQLNAYVVQEPPKGETCTYDWQLITHPRDYSGEMEGKHSQILKLSKLTPGLYEFKVIVEGQNAHGEGYVNVTVKPEPRKNRPPIAIVSPQFQEISLPTTSTVIDGSQSTDDDKIVQYHWEELKGPLREEKISEDTAILKLSKLVPGNYTFSLTVVDSDGATNSTTANLTVNKAVDHHHHHH , give the reported Residual activity [%].
Result: 66.7
